Reported EC50 values are given for each entry in this list.
Target: hGIPR (Homo sapiens)
Sequence (P48546 22-466): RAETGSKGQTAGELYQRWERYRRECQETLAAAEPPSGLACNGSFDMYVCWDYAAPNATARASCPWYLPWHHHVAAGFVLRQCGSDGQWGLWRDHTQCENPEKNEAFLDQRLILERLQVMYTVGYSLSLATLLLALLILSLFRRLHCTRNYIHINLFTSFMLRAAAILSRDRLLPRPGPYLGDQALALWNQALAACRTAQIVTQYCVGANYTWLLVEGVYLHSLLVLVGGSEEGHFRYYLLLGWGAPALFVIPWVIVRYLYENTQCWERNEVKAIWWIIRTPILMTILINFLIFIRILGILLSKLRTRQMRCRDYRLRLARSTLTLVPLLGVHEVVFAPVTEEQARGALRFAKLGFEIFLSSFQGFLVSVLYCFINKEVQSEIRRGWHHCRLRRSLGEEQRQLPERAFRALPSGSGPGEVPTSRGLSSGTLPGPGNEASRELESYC
Test: Functional cAMP activity in the presence of 1% HSA
Assay type: cell-based
Conditions: read-out: cAMP Rel EC50, hGIPR
Starred links: 1 amine or outer side, 2 acyl side, 3 side chain; linkers in the order of their positions; H or OH if unused. Non-standard residues stand in square brackets, D forms with d. Groups on a side chain read outwards from the residue. *: point of attachment. C18 diacid = O=C(O)CCCCCCCCCCCCCCCCC(=O)*; αMePhe(2-F) = C[C@](N)(Cc1ccccc1F)C(=O)O; γGlu = O=C(O)[C@H](CCC(=O)[*:2])N[*:1]; αMe4Pal = C[C@](N)(Cc1ccncc1)C(=O)O; αMeY = C[C@](N)(Cc1ccc(O)cc1)C(=O)O; 4Pal = N[C@@H](Cc1ccncc1)C(=O)O; αMeL = CC(C)C[C@](C)(N)C(=O)O; αMeS = C[C@](N)(CO)C(=O)O; Orn = NCCC[C@H](N)C(=O)O; AEEA = NCCOCCOCC(=O)O; Aib = CC(C)(N)C(=O)O
The reply should contain only the number, in nM.

Substance	Val
H-Y[Aib]QGT[αMePhe(2-F)]TSD[4Pal][αMeS]I[αMeL]LD[Orn]K([γGlu-γGlu-C18 diacid])AQ[αMe4Pal]EFI[dE][αMeY]LVEGGPSSGEPPPSGTGE-NH2 [Example 738]	0.64
H-Y[Aib]QGT[αMePhe(2-F)]TSD[4Pal]SI[αMeL]LD[Orn]K([AEEA-γGlu-C18 diacid])AQ[αMe4Pal][Orn]FI[dE][αMeY]LEEGGPSSGEPPPEGT-NH2 [Example 506]	28.7
H-Y[Aib]QGTFTSD[4Pal]SQ[αMeL]LDKK([dE-γGlu-C18 diacid])AQ[αMe4Pal]AFIEYLIE[Aib]GPSSGAPPPSGS-NH2 [Example 920]	9.05

Quick note, EC50 for H-Y[Aib]QGTFTSD[4Pal]S[Orn][αMeL]LD[Orn]K([γGlu-γGlu-C18 diacid])AQ[Aib]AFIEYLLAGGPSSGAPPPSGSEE-NH2 [Example 1069] landed at 39.5
